Assay: Kinetic solubility in PBS at 7.4
Format: physicochemical
Details: PBS buffer, aqueous buffer, kinetic from dmso stock, pH 7.4, 500 μM final concentration, 1.5 hours at room temperature, average of three runs, read-out: Ksol
parameter-measured: solubility kinetic at 1.5 h
Please give the number followed by its unit.

{"columns": ["mol", "result"],
 "data": [
  ["COC[C@H]1CCN1c1ccc2c(c1)Oc1cc(N3CC[C@@H]3COC)ccc1C21C(=[N+]=[N-])C(=O)c2ccc(C(=O)NCCOCCOCCCCCCCl)cc21", "39.5 µM"],
  ["CN(C)C(=O)C1CN(c2ccc3c(c2)Oc2cc(N4CC(C(=O)N(C)C)C4)ccc2C32C(=[N+]=[N-])C(=O)c3ccc(C(=O)NCCOCCOCCCCCCCl)cc32)C1", "3.69 µM"],
  ["[N-]=[N+]=C1C(=O)c2ccc(C(=O)NCCOCCOCCCCCCCl)cc2C12c1ccc(N3CC(C(=O)O)C3)cc1Oc1cc(N3CC(C(=O)O)C3)ccc12", "481 µM"]
]}

Returns the measured solubility kinetic at 1.5 h for the input compound. Input: COC(=O)C1CN(c2ccc3c(c2)Oc2cc(N4CC(C(=O)OC)C4)ccc2C32C(=[N+]=[N-])C(=O)c3ccc(C(=O)NCCOCCOCCCCCCCl)cc32)C1 58.4 µM

From: patent US12681018B2
